Value source: patent US20060193821

- tested-on: IL-12 (human, p35/p40 heterodimer) (Homo sapiens, UniProt P29459;P29460 SEQ:57-253,SEQ:23-328)
- Sequence (P29459 23-219, chain 1 of 2): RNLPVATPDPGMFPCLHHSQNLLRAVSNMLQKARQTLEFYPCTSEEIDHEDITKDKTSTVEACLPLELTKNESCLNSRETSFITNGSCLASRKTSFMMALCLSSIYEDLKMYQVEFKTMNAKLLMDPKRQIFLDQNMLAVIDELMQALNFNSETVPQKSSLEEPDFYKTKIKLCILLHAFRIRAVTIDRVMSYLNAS
- Sequence (P29460 23-328, chain 2 of 2): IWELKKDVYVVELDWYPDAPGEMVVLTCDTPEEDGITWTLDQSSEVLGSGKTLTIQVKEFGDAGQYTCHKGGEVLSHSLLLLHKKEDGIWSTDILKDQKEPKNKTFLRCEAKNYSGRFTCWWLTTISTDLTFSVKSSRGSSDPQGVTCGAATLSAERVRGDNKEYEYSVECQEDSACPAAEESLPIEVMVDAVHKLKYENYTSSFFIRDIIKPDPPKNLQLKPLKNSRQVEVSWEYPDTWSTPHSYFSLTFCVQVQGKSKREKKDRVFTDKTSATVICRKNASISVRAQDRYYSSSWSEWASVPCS
- run-description: filter; 1X PBS, tRNA, ssDNA, BSA, 30 min RT
- test-parameters: label: 32P
endpoint: Kd (nM)
Form entry: value (nM) — number only.

binder	unit-label	observed-measurement
ARC490 (mixed, 2'-deoxy A and G, 2'-OMe C and U (dRmY)) RNA: GGGAGAGGAGAGAACGUUCUACAGCCUUUUGGGUAAGGGGAGGGGUGCCGGUCGCUGUCGAUCGAUCGAUCGAUG	nM	37.1
ARC489 (mixed, 2'-deoxy A and G, 2'-OMe C and U (dRmY)) RNA: GGGAGAGGAGAGAACGUUCUACAGCGCCGGUGGGCGGGCAUUGGGUGGAUGCGCUGUCGAUCGAUCGAUCGAUG	nM	17.2

Read the next record carefully.
**Q:** Looking for the measured Kd of ARC491 (mixed, 2'-deoxy A and G, 2'-OMe C and U (dRmY)) RNA: GGGAGAGGAGAGAACGUUCUACAGCGCCGGUGGGUGGGCAUAGGGUGGAUGCGCUGUCGAUCGAUCGAUCGAUG , can you help?
**A:** 93
